Source: paper PMC9120017

- STUDY SYSTEM: mouse TMEM16A mutant V511A (Mus musculus, UniProt Q8BHY3, V511A)
- Construct: expressed in transfected cells; host or cells: HEK293T
- Sequence (Q8BHY3 1-960 V511A): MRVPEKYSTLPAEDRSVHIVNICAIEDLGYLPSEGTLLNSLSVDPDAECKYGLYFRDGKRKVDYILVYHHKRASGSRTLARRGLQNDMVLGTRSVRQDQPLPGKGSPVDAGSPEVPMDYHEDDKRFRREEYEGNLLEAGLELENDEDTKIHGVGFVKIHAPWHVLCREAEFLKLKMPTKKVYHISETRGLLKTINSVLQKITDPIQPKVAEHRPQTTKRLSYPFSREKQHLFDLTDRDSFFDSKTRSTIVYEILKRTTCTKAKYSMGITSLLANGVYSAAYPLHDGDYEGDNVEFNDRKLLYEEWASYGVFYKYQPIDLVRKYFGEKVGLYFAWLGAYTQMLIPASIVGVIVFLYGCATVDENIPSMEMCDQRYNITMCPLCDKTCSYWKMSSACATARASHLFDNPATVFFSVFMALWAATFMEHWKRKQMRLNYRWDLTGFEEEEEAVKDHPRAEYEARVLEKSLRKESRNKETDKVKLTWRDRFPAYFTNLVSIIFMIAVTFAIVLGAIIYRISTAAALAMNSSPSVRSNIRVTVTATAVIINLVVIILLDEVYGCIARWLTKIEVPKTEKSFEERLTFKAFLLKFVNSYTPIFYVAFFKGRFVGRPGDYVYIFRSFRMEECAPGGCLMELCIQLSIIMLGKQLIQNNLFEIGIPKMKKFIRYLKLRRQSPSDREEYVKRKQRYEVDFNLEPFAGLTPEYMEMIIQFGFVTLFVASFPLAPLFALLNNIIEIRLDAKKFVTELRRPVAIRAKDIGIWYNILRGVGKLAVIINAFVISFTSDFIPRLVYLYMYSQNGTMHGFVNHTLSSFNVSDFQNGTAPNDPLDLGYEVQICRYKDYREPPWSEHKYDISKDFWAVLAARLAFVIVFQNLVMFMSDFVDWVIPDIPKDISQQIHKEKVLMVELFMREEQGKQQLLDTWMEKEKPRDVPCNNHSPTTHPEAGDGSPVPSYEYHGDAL
- ASSAY REMARKS: Inside-out patch recording of 1PBC block, mutant V511A
- Assay type: cell-based
- CONDITION SET: -140 mV; 2 µM Ca2+
VALUE KIND: pIC50
By convention, pIC50 is the negative base-10 log of a molar concentration.

[ask] What does the record list as pIC50 for N#Cc1c(C(F)(F)F)cc(O)n2c1nc1ccccc12 ?
[reply] 4.10

---

- STUDY SYSTEM: mouse TMEM16A mutant R535A (Mus musculus, UniProt Q8BHY3, R535A)
- Construct: expressed in transfected cells; host or cells: HEK293T
- ASSAY REMARKS: Inside-out patch recording of 1PBC block, mutant R535A
- Type: cell-based
- CONDITION SET: -60 mV; 2 µM Ca2+
VALUE KIND: IC50 (µM)
Kindly provide the numeric value in µM only, without the unit symbol.

[ask] Given N#Cc1c(C(F)(F)F)cc(O)n2c1nc1ccccc12 , state its recorded IC50.
[reply] 21.4

---

- STUDY SYSTEM: mouse TMEM16A mutant T539A (Mus musculus, UniProt Q8BHY3, T539A)
- Construct: expressed in transfected cells; host or cells: HEK293T
- Sequence (Q8BHY3 1-960 T539A): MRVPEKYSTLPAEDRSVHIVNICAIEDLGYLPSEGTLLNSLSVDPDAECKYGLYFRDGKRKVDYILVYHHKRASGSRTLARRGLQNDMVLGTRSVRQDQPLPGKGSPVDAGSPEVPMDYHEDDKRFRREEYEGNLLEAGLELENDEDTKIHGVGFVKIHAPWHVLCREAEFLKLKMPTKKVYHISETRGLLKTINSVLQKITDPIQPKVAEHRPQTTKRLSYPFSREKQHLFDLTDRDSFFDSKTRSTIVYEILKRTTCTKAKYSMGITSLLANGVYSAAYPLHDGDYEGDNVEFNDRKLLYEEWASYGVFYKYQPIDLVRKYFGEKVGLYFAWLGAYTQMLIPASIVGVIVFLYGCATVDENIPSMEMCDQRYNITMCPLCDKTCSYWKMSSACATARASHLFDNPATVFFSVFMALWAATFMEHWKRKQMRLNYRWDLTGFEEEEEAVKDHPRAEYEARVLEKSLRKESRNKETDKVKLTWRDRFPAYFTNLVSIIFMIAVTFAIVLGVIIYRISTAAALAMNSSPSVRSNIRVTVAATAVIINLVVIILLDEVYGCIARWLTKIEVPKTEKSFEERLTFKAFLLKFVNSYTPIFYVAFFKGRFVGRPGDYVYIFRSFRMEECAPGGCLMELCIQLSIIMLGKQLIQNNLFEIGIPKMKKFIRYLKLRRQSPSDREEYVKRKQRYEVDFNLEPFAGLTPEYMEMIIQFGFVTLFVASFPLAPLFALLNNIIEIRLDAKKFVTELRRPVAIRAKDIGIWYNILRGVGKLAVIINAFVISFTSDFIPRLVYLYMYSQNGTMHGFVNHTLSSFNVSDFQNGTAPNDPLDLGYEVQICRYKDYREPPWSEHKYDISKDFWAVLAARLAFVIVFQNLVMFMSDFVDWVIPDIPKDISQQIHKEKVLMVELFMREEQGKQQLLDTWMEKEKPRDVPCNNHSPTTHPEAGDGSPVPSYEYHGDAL
- ASSAY REMARKS: Inside-out patch recording of 1PBC block, mutant T539A
- Type: cell-based
- CONDITION SET: T539A; V -60 mV
VALUE KIND: pIC50
FYI, pIC50 means -log10 of a concentration in mol per litre.

[ask] Any idea what its pIC50 is? The molecule is N#Cc1c(C(F)(F)F)cc(O)n2c1nc1ccccc12
[reply] 4.61

---

- STUDY SYSTEM: mouse TMEM16A mutant R515A (Mus musculus, UniProt Q8BHY3, R515A)
- Construct: expressed in transfected cells; host or cells: HEK293T
- ASSAY REMARKS: Inside-out patch recording of 1PBC block, mutant R515A
- Format: cell-based
- CONDITION SET: R515A; V 0 mV
VALUE KIND: IC50 (µM)
Give the quantity in µM, number only.

[ask] Param readout= IC50; system= mouse TMEM16A mutant R515A (Mus musculus, UniProt Q8BHY3, R515A); entry= N#Cc1c(C(F)(F)F)cc(O)n2c1nc1ccccc12 [1PBC] ; returns value.
[reply] 120

---

- STUDY SYSTEM: mouse TMEM16A mutant T539A (Mus musculus, UniProt Q8BHY3, T539A)
- Construct: expressed in transfected cells; host or cells: HEK293T
- ASSAY REMARKS: Inside-out patch recording of 1PBC block, mutant T539A
- Type: cell-based
- CONDITION SET: T539A; V -140 mV
VALUE KIND: IC50
Kindly write the number and append the unit.

[ask] IC50 lookup needed for N#Cc1c(C(F)(F)F)cc(O)n2c1nc1ccccc12 [1PBC] , thanks.
[reply] 44.4 µM

---

- STUDY SYSTEM: mouse TMEM16A mutant V543A (Mus musculus, UniProt Q8BHY3, V543A)
- Construct: expressed in transfected cells; host or cells: HEK293T
- ASSAY REMARKS: Inside-out patch recording of 1PBC block, mutant V543A
- Type: cell-based
- CONDITION SET: 0 mV; 15 µM Ca2+
VALUE KIND: pIC50
In simple prose, pIC50 is minus the logarithm base ten of a concentration in moles per litre.

[ask] What does the data say about its pIC50? Entry: N#Cc1c(C(F)(F)F)cc(O)n2c1nc1ccccc12
[reply] 4.95

---

- STUDY SYSTEM: mouse TMEM16A mutant T539A (Mus musculus, UniProt Q8BHY3, T539A)
- Construct: expressed in transfected cells; host or cells: HEK293T
- Sequence (Q8BHY3 1-960 T539A): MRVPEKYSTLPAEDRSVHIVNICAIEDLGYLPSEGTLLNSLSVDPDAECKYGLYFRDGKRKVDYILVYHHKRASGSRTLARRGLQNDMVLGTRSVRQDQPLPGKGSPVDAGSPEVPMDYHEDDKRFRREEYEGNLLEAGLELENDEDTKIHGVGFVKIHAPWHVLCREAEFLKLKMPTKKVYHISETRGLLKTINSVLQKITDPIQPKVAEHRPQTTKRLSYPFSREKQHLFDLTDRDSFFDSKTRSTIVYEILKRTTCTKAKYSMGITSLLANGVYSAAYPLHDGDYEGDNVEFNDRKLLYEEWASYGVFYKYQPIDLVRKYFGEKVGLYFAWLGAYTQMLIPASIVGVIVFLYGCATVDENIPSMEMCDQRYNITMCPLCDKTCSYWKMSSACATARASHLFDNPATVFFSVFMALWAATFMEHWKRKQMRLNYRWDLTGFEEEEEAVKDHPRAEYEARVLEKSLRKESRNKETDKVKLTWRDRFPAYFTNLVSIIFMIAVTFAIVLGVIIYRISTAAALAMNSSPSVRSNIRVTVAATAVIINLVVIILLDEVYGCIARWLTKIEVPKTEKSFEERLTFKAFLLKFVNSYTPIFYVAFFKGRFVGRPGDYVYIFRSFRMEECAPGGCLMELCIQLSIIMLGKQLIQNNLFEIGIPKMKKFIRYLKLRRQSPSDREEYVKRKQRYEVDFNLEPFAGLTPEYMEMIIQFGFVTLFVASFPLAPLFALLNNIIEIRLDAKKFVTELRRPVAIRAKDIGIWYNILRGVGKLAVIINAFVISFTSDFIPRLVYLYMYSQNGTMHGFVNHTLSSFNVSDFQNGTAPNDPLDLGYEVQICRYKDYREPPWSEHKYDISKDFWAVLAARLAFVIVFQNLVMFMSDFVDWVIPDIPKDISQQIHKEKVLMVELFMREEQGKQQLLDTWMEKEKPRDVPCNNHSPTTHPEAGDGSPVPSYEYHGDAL
- ASSAY REMARKS: Inside-out patch recording of 1PBC block, mutant T539A
- Type: cell-based
- CONDITION SET: T539A; V -40 mV
- Method: HEK293T cells (ATCC CRL-1573) were maintained in Dulbecco’s modified Eagle’s medium (DMEM; Sigma-Aldrich) supplemented with 10 U ml^−1 penicillin, 0.1 mg ml^−1 streptomycin (Sigma-Aldrich), 2 mM L-glutamine (Sigma-Aldrich), and 10% FBS (Sigma-Aldrich) in a humidified atmosphere containing 5% CO2 at 37 °C. […]
VALUE KIND: IC50 (µM)
# unit: µM | format: bare number

[ask] Recall the recorded IC50 for N#Cc1c(C(F)(F)F)cc(O)n2c1nc1ccccc12 with mouse TMEM16A mutant T539A (Mus musculus, UniProt Q8BHY3, T539A) and state it.
[reply] 20.5
